# assayed_target: T1, human CD3 on CD3+ Jurkat cells (human, UniProt P07766 23-207)
# T1 construct: whole, on cells; Native CD3 complex on cells; the other CD3 chains are not specified for this assay; also called Human CD3+ Jurkat
# T1 sequence (P07766 23-207): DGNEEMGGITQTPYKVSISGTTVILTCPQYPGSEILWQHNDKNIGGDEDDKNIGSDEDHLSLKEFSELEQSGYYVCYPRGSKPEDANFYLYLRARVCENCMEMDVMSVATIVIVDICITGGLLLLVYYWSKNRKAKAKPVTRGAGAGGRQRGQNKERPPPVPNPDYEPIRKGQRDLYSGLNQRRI
# assay_remarks: flow cytometry, 100 nM IgG on CD3+ Jurkat cells, pH 6.0
Kindly note that classification relies on MFI pH 6.0 with these boundaries: band A: < 300 MFI; band B: ≥ 300 MFI and < 2000 MFI; band C: ≥ 2000 MFI

Worked examples follow.
Query: Which category fits this record: SAD10318_P03_E08 (ADI-48605) (antibody, V domains shown, IgG; also called Ab199) VH: QVQLVQSGAEVKKPGASVKVSCKASGFNIKDYYMHWVRQAPGQRLEWMGWIDLENANTIYDAKFQGRVTITRDTSASTAYMELSSLRSEDTAVYYCARDHYHRYFYDVWGQGTLVTVSS VL: DIVMTQSPDSLAVSLGERATINCKSSQSLLNAHTGKNHLAWYQQKPGQPPKLLIYWASTRESGVPDRFSGSGSGTDFTLTISSLQAEDVAVYYCKQSYHRRHFGGGTKVEIK
Reply: band A

Query: Which category fits this record: SAD10318_P03_F08 (ADI-48606) (antibody, V domains shown, IgG; also called Ab200) VH: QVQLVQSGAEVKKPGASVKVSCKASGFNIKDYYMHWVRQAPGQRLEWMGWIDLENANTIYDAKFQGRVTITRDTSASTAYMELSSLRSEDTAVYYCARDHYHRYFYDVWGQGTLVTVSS VL: DIVMTQSPDSLAVSLGERATINCKSSQSLLNAHTGKNHLAWYQQKPGQPPKLLIYWASTRESGVPDRFSGSGSGTDFTLTISSLQAEDVAVYYCKQSYSRRHFGGGTKVEIK
Reply: band A

Query: Which category fits this record: SAD10318_P02_G04 (ADI-48593) (antibody, V domains shown, IgG; also called Ab158) VH: QVQLVQSGAEVKKPGASVKVSCKASGFNIKDYYMHWVRQAPGQRLEWMGWIDLENANTIYDAKFQGRVTITRDTSASTAYMELSSLRSEDTAVYYCARDAYGHYHYDVWGQGTLVTVSS VL: DIVMTQSPDSLAVSLGERATINCKSSQSLLHARTGKNYLAWYQQKPGQPPKLLIYWASTRESGVPDRFSGSGSGTDFTLTISSLQAEDVAVYYCKQSYHHRTFGGGTKVEIK
Reply: band C

Query: Which category fits this record: SAD10320_P02_E04 (ADI-48649) (antibody, V domains shown, IgG; also called Ab72) VH: QVQLVQSGAEVKKPGASVKVSCKASGFNIKDYYMHWVRQAPGQRLEWMGWIDLENANTIYDAKFQGRVTITRDTSASTAYMELSSLRSEDTAVYYCARDAYHEYFYDVWGQGTLVTVSS VL: DIVMTQSPDSLAVSLGERATINCKSSQSLLNARTGKNYLAWYQQKPGQPPKLLIYWASTRESGVPDRFSGSGSGTDFTLTISSLQAEDVAVYYCKQSHVRRTFGGGTKVEIK
Reply: band C

Query: Which category fits this record: SAD10319_P04_G11 (ADI-48641) (antibody, V domains shown, IgG; also called Ab39) VH: QVQLVQSGAEVKKPGASVKVYCKASGYTFTTYEMHWVRQAPGQRLEWMGSINAGDANTKYSQKFQGRVTITRDTSASTAYMELSSLRSEDTAVYYCARDAYHHYFYDVWGQGTLVTVSS VL: DIVMTQSPDSLAVSLGERATINCKSSQSLLNARTGKNYLAWYQQKPGQPPKLLIYWASTRESGVPDRFSGSGSGTDFTLTISSLQAEDVAVYYCKQSYSRRTFGGGTKVEIK
Reply: band A

Next:
Query: Which category fits this record: SAD10319_P01_A01 (ADI-48619) (antibody, V domains shown, IgG; also called Ab229) VH: QVQLVQSGAEVKKPGASVKVSCKASGYTFASYAMHWVRQAPGQRLEWMGWINPDTGNTVYSQKFQGRVTITRDTSASTAYMELSSLRSEDTAVYYCARDAYHHYFYDVWGQGTLVTVSS VL: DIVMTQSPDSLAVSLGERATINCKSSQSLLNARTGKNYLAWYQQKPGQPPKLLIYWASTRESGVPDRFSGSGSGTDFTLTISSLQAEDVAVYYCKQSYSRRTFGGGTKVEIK
Reply: band B

Query: Which category fits this record: SAD10320_P01_F03 (ADI-48647) (antibody, V domains shown, IgG; also called Ab65) VH: QVQLVQSGAEVKKPGASVKVSCKASGFNIKDYYMHWVRQAPGQRLEWMGWIDLENANTIYDAKFQGRVTITRDTSASTAYMELSSLRSEDTAVYYCARDAYPHYFYDVWGQGTLVTVSS VL: DIVMTQSPDSLAVSLGERATINCKSSQSLLNARTGKNYLAWYQQKPGQPPKLLIYWASTRESGVPDRFSGSGSGTDFTLTISSLQAEDVAVYYCKQSYLHRTFGGGTKVEIK
Reply: band C

Query: Which category fits this record: SAD10318_P03_H08 (ADI-48607) (antibody, V domains shown, IgG; also called Ab202) VH: QVQLVQSGAEVKKPGASVKVSCKASGFNIKDYYMHWVRQAPGQRLEWMGWIDLENANTIYDAKFQGRVTITRDTSASTAYMELSSLRSEDTAVYYCARDAYHHYFYDVWGQGTLVTVSS VL: DIVMTQSPDSLAVSLGERATINCKSSQSLLNARTGHNHLAWYQQKPGQPPKLLIYWASTRESGVPDRFSGSGSGTDFTLTISSLQAEDVAVYYCHQSHSRRTFGGGTKVEIK
Reply: band A

Query: Which category fits this record: SAD10318_P03_E07 (ADI-48601) (antibody, V domains shown, IgG; also called Ab191) VH: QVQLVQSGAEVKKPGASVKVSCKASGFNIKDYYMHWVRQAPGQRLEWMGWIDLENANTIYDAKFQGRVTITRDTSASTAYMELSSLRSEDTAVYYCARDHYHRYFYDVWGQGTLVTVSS VL: DIVMTQSPDSLAVSLGERATINCKSSQSLLNAHTGKNYLAWYQQKPGQPPKLLIYWASTRESGVPDRFSGSGSGTDFTLTISSLQAEDVAVYYCHQSHSRRTFGGGTKVEIK
Reply: band B

Query: Which category fits this record: SAD10318_P02_A05 (ADI-48595) (antibody, V domains shown, IgG; also called Ab178) VH: QVQLVQSGTEVKKPGASVKVSCKASGFNIKDYYMHWVRQAPGQRLEWMGWIDLENANTIYDAKFQGRVTITRDTSASTAYMELSSLRSEDTAVYYCARDAYHRYFYDHWGQGTLVTVSS VL: DIVMTQSPDSLAVSLGERATINCKSSQSLLNSHTGKNYLAWYQQKPGQPPKLLIYWASTRESGVPDRFSGSGSGTDFTLTISSLQAEDVAVYYCKQSYSRRTFGGGTKVEIK
Reply: band C
